- MEASURED TARGET: KOR (Homo sapiens, UniProt P41145)
- Sequence (P41145 whole entry): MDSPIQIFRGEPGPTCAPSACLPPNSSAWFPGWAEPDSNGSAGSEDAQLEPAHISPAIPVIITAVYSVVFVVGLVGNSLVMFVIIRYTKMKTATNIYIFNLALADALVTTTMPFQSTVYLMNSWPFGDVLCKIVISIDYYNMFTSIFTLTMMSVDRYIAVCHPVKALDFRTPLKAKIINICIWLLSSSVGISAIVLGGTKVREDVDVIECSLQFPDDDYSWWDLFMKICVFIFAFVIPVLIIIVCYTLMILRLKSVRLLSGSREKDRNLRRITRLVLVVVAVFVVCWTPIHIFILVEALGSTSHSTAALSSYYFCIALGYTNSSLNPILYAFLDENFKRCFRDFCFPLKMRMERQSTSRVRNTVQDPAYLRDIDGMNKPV
- Sequence (P32121 whole entry partner): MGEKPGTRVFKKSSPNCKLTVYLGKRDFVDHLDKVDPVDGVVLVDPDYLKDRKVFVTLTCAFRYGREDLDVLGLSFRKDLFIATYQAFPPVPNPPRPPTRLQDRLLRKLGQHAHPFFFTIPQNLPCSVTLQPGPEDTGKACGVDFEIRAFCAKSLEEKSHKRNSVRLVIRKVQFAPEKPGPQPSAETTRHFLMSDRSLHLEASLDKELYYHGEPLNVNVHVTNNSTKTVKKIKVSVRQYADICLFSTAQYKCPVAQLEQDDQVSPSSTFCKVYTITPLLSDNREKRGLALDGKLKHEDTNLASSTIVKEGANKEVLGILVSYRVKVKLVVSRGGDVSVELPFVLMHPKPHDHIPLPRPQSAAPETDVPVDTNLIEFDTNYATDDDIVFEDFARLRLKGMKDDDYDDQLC
- PROTOCOL SUMMARY: cell-based
- Parameters: expressed in transfected cells; host or cells: HTLA cells (stably expressing TEV-fused β-arrestin2)
MEASUREMENT KIND: pEC50
// scale note: pEC50 = -log10(conc_M); give the bare number

Query block: For COC(=O)N1CCN(C(=O)Cc2ccc(Cl)c(Cl)c2)[C@@H]2[C@@H](N3CC[C@H](O)C3)CCC[C@@H]21 (mixture of isomers) [12c] , write its pEC50.
Result block: 8.06

====

Each item that follows carries a reported Ki.
- MEASURED TARGET: KOR (Cavia porcellus)
- Construct: The thawed guinea pig brain membrane preparation (about 100 μg of the protein) was incubated; tissue Harlan-Winkelmann, Borchen, Germany; host or cells: guinea pig brain membrane homogenate
- Sequence (P41144 whole entry): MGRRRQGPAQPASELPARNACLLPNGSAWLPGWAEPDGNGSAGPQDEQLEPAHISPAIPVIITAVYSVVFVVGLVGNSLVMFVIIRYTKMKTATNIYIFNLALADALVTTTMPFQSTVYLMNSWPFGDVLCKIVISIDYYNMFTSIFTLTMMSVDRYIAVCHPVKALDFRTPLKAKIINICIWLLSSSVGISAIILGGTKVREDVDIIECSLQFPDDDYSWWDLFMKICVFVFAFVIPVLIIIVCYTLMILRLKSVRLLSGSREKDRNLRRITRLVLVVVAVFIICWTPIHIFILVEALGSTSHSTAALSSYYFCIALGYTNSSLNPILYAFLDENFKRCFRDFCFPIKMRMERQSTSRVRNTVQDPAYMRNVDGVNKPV
- PROTOCOL SUMMARY: biochemical
- Assay type: binding, guinea pig
- COND: Ki±SEM KOR [3H]U-69,593
Answer with a number only, understood to be in µM.

1. CC(C)(C)OC(=O)N1CCN(C(=O)Cc2ccc(Cl)c(Cl)c2)[C@@H]2[C@@H](N3CC[C@H](O)C3)CCC[C@@H]21 (mixture of isomers) [12a]; 0.016

We now examine a further compound.
Query block: Provide Ki, tested on KOR (Cavia porcellus), for COC(=O)N1CCN(C(=O)Cc2ccc(Cl)c(Cl)c2)[C@@H]2[C@@H](N3CC[C@H](O)C3)CCC[C@@H]21 (mixture of isomers) [12c] .
Result block: 0.0092

The measured values listed here are drawn from paper PMC7589326.
